All values here come from patent US20250163162A1.

tgt: T1, IL10Rα/IL2Rγ receptor (human, UniProt Q13651 22-578; P31785 23-369)
T1 sequence (looked up) 1: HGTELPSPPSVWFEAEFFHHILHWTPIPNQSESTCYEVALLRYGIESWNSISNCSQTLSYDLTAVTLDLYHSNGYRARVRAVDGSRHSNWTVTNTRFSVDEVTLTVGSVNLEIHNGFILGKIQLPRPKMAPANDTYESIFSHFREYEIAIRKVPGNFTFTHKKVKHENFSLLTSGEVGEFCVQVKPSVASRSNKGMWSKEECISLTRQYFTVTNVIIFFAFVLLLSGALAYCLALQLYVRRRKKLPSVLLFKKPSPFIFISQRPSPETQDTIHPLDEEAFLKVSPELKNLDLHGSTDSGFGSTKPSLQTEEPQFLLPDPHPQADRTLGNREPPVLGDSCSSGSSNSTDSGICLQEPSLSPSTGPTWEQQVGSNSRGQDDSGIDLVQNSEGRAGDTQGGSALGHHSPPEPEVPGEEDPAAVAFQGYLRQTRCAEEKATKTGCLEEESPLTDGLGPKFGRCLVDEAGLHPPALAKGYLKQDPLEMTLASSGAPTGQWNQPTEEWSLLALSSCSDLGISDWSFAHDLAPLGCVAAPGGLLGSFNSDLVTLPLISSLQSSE
T1 sequence (looked up) 2: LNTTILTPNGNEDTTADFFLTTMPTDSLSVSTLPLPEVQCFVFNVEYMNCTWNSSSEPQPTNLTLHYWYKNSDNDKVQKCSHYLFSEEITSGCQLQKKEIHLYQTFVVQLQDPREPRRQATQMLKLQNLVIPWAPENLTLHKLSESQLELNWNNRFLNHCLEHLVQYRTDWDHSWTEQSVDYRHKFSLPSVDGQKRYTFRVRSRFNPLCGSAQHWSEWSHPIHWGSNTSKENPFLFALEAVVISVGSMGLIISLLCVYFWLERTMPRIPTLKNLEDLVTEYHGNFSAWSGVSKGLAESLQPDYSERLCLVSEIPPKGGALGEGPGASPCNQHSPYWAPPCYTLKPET
assayProtocol: cell-based or functional assay
quantityName: pSTAT3 MFI, Monocytes, 1 nM (unstimulated 2116) (MFI)

| binder | valueUnit | measuredValue |
| --- | --- | --- |
| DR441(DR236-DR231) (bispecific antibody) QVQLQESGGGSVQAGGSLRLSCAASRFTYSSYCMGWFRQAPGKEREGVASIDSDGSTSYTDSVKGRFTISKDNAKNTLYLQMNSLKPEDTAMYYCALDLMSTVVPGFCGFLLSAGMDYWGKGTQVTVSSGGGSQVQLQESGGGSVQAGGSLRLSCTASGFTFDDREMNWYRQAPGNECELVSTISSDGSTYYADSVKGRFTISQDNAKNTVYLQMDSVKPEDTAVYYCAADFMIAIQAPGAGCWGQGTQVTVSSASHHHHHH | MFI | 2060 |
